Target protein (sequence): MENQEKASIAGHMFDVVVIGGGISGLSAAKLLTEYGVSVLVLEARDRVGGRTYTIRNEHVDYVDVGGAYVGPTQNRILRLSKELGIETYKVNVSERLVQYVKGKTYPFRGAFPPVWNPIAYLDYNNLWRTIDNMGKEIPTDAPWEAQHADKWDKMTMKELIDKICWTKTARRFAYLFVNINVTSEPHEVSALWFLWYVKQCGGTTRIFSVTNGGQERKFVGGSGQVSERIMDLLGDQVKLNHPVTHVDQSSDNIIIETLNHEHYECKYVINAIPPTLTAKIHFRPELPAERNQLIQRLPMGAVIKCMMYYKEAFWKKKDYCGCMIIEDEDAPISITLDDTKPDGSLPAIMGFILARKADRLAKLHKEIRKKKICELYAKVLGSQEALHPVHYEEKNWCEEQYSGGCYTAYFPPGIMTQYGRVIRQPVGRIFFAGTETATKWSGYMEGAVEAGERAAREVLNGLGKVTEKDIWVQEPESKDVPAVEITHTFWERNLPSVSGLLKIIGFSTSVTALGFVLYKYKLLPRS
For each record, write down the corresponding pKi.
Formally, pKi is defined as -log10 of the concentration c, with c in mol/L.

Challenge: If you can, please state the reported pKi value of Cc1cnc(C)n1CC(=O)c1ccc(-c2ccc(N3C[C@H](Cn4ccnn4)OC3=O)cc2F)cn1 .
Response given: 4.72

Challenge: What do we get for C[C@@H](O)c1ccc(-c2ccc(N3C[C@H](Cn4ccnn4)OC3=O)cc2F)cn1 ?
Response given: 5.37

Challenge: Repeat with CC(C)C(O)c1ccc(-c2ccc(N3C[C@H](Cn4ccnn4)OC3=O)cc2F)cn1 (stereo not given in full)
Response given: 4.95

Challenge: What do you get for O=C(c1ccc(-c2ccc(N3C[C@H](Cn4ccnn4)OC3=O)cc2F)cn1)C1CNC1 ?
Response given: 5.35

Challenge: And the next one, COCc1ccc(-c2ccc(N3C[C@H](Cn4ccnn4)OC3=O)cc2F)cn1 ?
Response given: 5.77

Challenge: # repeat for CN1CCN(CCCC(=O)c2ccc(-c3ccc(N4C[C@H](Cn5ccnn5)OC4=O)cc3F)cn2)CC1
Response given: 4.98

Challenge: Subsequent entry: CO[C@@H](C)c1ccc(-c2ccc(N3C[C@H](Cn4ccnn4)OC3=O)cc2F)cn1
Response given: 5.60

Data provenance: ChEMBL document CHEMBL1148787
